- TEST SYSTEM: Sodium-dependent noradrenaline transporter (Homo sapiens); further: assay procedure not described here
- Sequence (P23975 whole entry): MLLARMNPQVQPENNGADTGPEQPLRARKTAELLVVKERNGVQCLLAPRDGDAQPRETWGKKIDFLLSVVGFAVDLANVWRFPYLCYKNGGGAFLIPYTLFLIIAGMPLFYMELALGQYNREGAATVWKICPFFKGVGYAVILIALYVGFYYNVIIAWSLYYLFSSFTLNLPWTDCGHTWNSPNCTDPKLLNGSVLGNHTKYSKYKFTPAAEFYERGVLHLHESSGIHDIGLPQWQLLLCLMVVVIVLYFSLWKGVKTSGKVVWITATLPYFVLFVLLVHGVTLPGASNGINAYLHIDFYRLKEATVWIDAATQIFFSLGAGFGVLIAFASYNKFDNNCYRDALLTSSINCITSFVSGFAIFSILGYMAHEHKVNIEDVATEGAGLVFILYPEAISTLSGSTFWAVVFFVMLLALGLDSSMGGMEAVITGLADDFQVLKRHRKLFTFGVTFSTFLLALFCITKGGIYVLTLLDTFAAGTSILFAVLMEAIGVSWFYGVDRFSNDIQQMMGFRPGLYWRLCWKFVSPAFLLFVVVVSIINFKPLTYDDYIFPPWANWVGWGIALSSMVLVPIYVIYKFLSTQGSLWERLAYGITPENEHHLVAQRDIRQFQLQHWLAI
Entries and their AC50 values follow.

Which measured AC50 value corresponds to CNC(=O)c1ccccc1Sc1ccc2c(/C=C/c3ccccn3)n[nH]c2c1 [AXITINIB] ?
> 30 µM

Same again, this time with CCCCc1ncc(/C=C(\Cc2cccs2)C(=O)O)n1Cc1ccc(C(=O)O)cc1 [EPROSARTAN]
> 30 µM

Field entry: OC(CNCC(O)C1CCc2cc(F)ccc2O1)C1CCc2cc(F)ccc2O1 (stereo not given) [NEBIVOLOL]
1.5 µM

Now consider Cc1cc(O)c(C(=O)N[C@@H](C(=O)N[C@@H]2C(=O)N3C(C(=O)O)=C(CSc4nnnn4C)CS[C@H]23)c2ccc(O)cc2)cn1 [CEFPIRAMIDE] and answer again.
> 30 µM

Also need COC(=O)C1=C(C)NC(C)=C(C(=O)OC2CCCN(Cc3ccccc3)C2)C1c1cccc([N+](=O)[O-])c1 (stereo not given) [BENIDIPINE] , thanks.
13 µM

Would you mind doing O=P1(NCCCl)OCCCN1CCCl (stereo not given) [IFOSFAMIDE] as well?
> 30 µM

Do the same for CCCc1nc(C(C)(C)O)c(C(=O)OCc2oc(=O)oc2C)n1Cc1ccc(-c2ccccc2-c2nnn[nH]2)cc1 [OLMESARTAN MEDOXOMIL] please
> 30 µM
